// data source = patent US20030082641A1

Target: T1, human GALR1 receptor (human, UniProt P47211 1-349)
T1 construct: whole, on cells; Expressed in LM(tk-) cells; also called Hum GALR1; hGALR1
T1 sequence (looked up): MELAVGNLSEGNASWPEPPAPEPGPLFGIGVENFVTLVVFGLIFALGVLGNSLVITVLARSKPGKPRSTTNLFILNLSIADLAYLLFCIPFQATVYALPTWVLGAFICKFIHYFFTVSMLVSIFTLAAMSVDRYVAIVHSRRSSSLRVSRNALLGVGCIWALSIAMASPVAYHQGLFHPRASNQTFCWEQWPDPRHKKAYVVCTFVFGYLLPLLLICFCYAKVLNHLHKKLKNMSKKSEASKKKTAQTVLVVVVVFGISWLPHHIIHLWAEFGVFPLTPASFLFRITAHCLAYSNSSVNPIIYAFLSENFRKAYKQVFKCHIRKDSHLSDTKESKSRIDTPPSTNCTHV
Test: displacement of porcine 125I-galanin; human GALR1 in LM(tk-)
measured.parameter: Ki (nM)

// worked examples, Ki included
LGSPVKEKRGWTLNSAGYLLGPHAIDNHRSFHDKYGLA (peptide, UniProt P07480 24-61, looked up, range -9 to +29; also called galanin -9 to +29) [(-) 9 to (+) 29 galanin, porcine]    7.85
GWTLNSAGYLLGP (peptide, UniProt P07480 33-45, looked up, range 1-13; Range counts on the galanin peptide) [porcine galanin 1-13]    7.94

A = SPVKEKRGWTLNSAGYLLGPHAIDNHRSFHDKYGLA (peptide, UniProt P07480 26-61, looked up, range -7 to +29; also called galanin -7 to +29; Gal -7-29) [(-7) to (+29) galanin, porcine]
B = GWTLNSAGYLLG (peptide, UniProt P07480 33-44, looked up, range 1-12; Range counts on the galanin peptide) [Porcine galanin 1-12]
Prompt: Between A and B , which one shows the larger Ki value? Your answer should be the label of the entry you select.
Completion: B
